This section presents compounds with their documented fraction unbound at 4 h, 0.5 μM values.
Test: fu,cell by equilibrium dialysis of cell homogenate, HL60
Type: in vitro ADME
Settings: human, dialysis 4 h 37°C, 10 million cells/mL homogenate, read-out: fu,HL60 Geomean
Form field (numeric): enter value without unit.

compound	fraction unbound at 4 h, 0.5 μM
COc1ccc2[nH]c([S+]([O-])Cc3ncc(C)c(OC)c3C)nc2c1 (stereo not drawn) [Omeprazole]	0.223
OC(Cn1cncn1)(Cn1cncn1)c1ccc(F)cc1F [Fluconazole]	0.646

### Prompt Recorded fraction unbound at 4 h, 0.5 μM of COC(=O)CCc1ccc(OCC(O)CNC(C)C)cc1 (stereo not drawn) [Esmolol] , please.
### Response 0.676

### Prompt Param item: COCCc1ccc(OCC(O)CNC(C)C)cc1 (stereo not drawn) [Metoprolol]
### Response 0.339

====

Assay: fu,cell by equilibrium dialysis of cell homogenate, Caco-2
Type: in vitro ADME
Settings: human, Caco-2 cell homogenate, dialysis 4 h 37°C, 10 million cells/mL homogenate, read-out: fu,Caco-2 Geomean
Labels assigned by fraction unbound at 4 h, 0.5 μM range: low (below 0.08), intermediate (0.08 to below 0.2), high (0.2 or more)

molecule	class.assignment
CCOc1nc2cccc(C(=O)O)c2n1Cc1ccc(-c2ccccc2-c2nnn[nH]2)cc1 [Candesartan]	intermediate

### Prompt Categorize the following entry: COCCc1ccc(OCC(O)CNC(C)C)cc1 (centres unmarked) [Metoprolol]
### Response intermediate

### Prompt Param item: COc1ccccc1Oc1c(NS(=O)(=O)c2ccc(C(C)(C)C)cc2)nc(-c2ncccn2)nc1OCCO [Bosentan]
### Response low

### Prompt Param item: COc1ccc2[nH]c([S+]([O-])Cc3ncc(C)c(OC)c3C)nc2c1 (centres unmarked) [Omeprazole]
### Response intermediate

====

Assay: fu,PL from membrane affinity to PL-covered silica beads, mixed beads
Type: in vitro ADME
Conditions: mixed beads PC:PE:PS:PI 52:22:12:14 mol%, 15 min incubation; read-out: fu,mixed bead Geomean
Use fulfilled when the recorded fraction unbound at 15 min is no lower than 0.003; use not fulfilled when it is lower.

molecule	class.assignment
CCN(CC)CCCC(C)Nc1ccnc2cc(Cl)ccc12 (centres unmarked) [Chloroquine]	fulfilled
CCOc1nc2cccc(C(=O)O)c2n1Cc1ccc(-c2ccccc2-c2nnn[nH]2)cc1 [Candesartan]	fulfilled
CC(C)n1c(/C=C/C(O)CC(O)CC(=O)O)c(-c2ccc(F)cc2)c2ccccc21 (centres unmarked) [Fluvastatin]	not fulfilled
COCCc1ccc(OCC(O)CNC(C)C)cc1 (centres unmarked) [Metoprolol]	fulfilled
COc1ccc([C@@H]2Sc3ccccc3N(CCN(C)C)C(=O)[C@@H]2OC(C)=O)cc1 [Diltiazem]	fulfilled

### Prompt Does the molecule Nc1ccc(/N=N/c2ccccc2)c(N)n1 [Phenazopyridine] have recorded fraction unbound at 15 min that is 0.003 or more?
### Response not fulfilled

### Prompt Param item: CCOc1cc(CC(=O)N[C@@H](CC(C)C)c2ccccc2N2CCCCC2)ccc1C(=O)O [Repaglinide]
### Response fulfilled

### Prompt Param item: CCC(C)(C)C(=O)O[C@H]1C[C@@H](C)C=C2C=C[C@H](C)[C@H](CC[C@@H]3C[C@@H](O)CC(=O)O3)[C@H]21 [Simvastatin]
### Response not fulfilled

====

Assay: fu,cell by equilibrium dialysis of cell homogenate, A549
Format: in vitro ADME
Details: human, dialysis 4 h 37°C, 10 million cells/mL homogenate, read-out: fu,A549 Geomean
Labels assigned by fraction unbound at 4 h, 0.5 μM range: bucket A: < 0.02; bucket B: ≥ 0.02 and < 0.1; bucket C: ≥ 0.1

Please review the entries below; each comes with its answer.
compound	class.assignment
CC(C)n1c(/C=C/C(O)CC(O)CC(=O)O)c(-c2ccc(F)cc2)c2ccccc21 (stereo not drawn)	bucket A
CCN(CC)CCCC(C)Nc1c2ccc(Cl)cc2nc2ccc(OC)cc12 (stereo not drawn)	bucket A
COc1ccc2[nH]c([S+]([O-])Cc3ncc(C)c(OC)c3C)nc2c1 (stereo not drawn)	bucket C
Cc1ccccc1N1C(=O)c2cc(S(N)(=O)=O)c(Cl)cc2NC1C (stereo not drawn)	bucket C
CC[C@H](C)C(=O)O[C@H]1C[C@@H](C)C=C2C=C[C@H](C)[C@H](CC[C@@H]3C[C@@H](O)CC(=O)O3)[C@H]21	bucket A
Cc1cccc(C)c1OCC(=O)N[C@@H](Cc1ccccc1)[C@@H](O)C[C@H](Cc1ccccc1)NC(=O)[C@H](C(C)C)N1CCCNC1=O	bucket A

### Prompt Categorize the following entry: COCCc1ccc(OCC(O)CNC(C)C)cc1 (stereo not drawn)
### Response bucket B

### Prompt Param item: CCN(CC)CCCC(C)Nc1ccnc2cc(Cl)ccc12 (stereo not drawn)
### Response bucket B

### Prompt Param item: CCC(C)(C)C(=O)O[C@H]1C[C@@H](C)C=C2C=C[C@H](C)[C@H](CC[C@@H]3C[C@@H](O)CC(=O)O3)[C@H]21
### Response bucket A

### Prompt Param item: Nc1ccc(/N=N/c2ccccc2)c(N)n1
### Response bucket A

### Prompt Param item: OC(Cn1cncn1)(Cn1cncn1)c1ccc(F)cc1F
### Response bucket C

### Prompt Param item: Cn1c(=O)c2c(ncn2C)n(C)c1=O
### Response bucket B

### Prompt Param item: CCOc1cc(CC(=O)N[C@@H](CC(C)C)c2ccccc2N2CCCCC2)ccc1C(=O)O [Repaglinide]
### Response bucket B

### Prompt Param item: CCCNC(=O)NS(=O)(=O)c1ccc(Cl)cc1 [Chlorpropamide]
### Response bucket C

### Prompt Param item: COc1ccc([C@@H]2Sc3ccccc3N(CCN(C)C)C(=O)[C@@H]2OC(C)=O)cc1
### Response bucket B

### Prompt Param item: COC(=O)CCc1ccc(OCC(O)CNC(C)C)cc1 (stereo not drawn)
### Response bucket C

### Prompt Param item: COc1ccccc1Oc1c(NS(=O)(=O)c2ccc(C(C)(C)C)cc2)nc(-c2ncccn2)nc1OCCO
### Response bucket B
